Values compiled from paper PMC4377293.

system-tested: human PRODH2 157–515 (Homo sapiens)
reported-property: pKd
Just the number, please; pKd means minus log10 of the concentration in mol/L.

O=S([O-])[O-].[Na+].[Na+] [sulfite, sodium sulfite] yielded pKd of 4.19

* * *

system-tested: human PRODH2 157–515 (Homo sapiens, UniProt Q9UF12)
Sequence (Q9UF12 81-439 limits assumed): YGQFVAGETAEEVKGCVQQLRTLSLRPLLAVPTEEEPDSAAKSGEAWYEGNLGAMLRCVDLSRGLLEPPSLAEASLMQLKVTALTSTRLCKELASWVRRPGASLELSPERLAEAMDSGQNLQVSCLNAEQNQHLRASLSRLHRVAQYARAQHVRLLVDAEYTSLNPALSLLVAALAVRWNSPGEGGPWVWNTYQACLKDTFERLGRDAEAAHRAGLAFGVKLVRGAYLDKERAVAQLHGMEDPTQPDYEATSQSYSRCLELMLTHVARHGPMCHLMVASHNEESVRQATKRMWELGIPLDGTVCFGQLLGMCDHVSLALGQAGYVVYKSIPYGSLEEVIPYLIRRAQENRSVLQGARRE
test-name: Steady-state kinetics with ubiquinone analogues as electron acceptors
Assay type: biochemical
settings: 600 mM Hyp; Triton X-100 included with CoQ4
reported-property: ability to support Hyp turnover as electron acceptor

Below are worked cases with known answers.
# given-smiles, measured
records = [
    ("COC1=C(OC)C(=O)C(C/C=C(\\C)CC/C=C(\\C)CC/C=C(\\C)CCC=C(C)C)=C(C)C1=O", "inability to use"),
    ("COC1=C(OC)C(=O)C(CC=C(C)C)=C(C)C1=O", "support Hyp turnover"),
    ("CC1=CC(=O)c2ccccc2C1=O", "support Hyp turnover"),
    ("CC1=C(C)C(=O)C(C)=C(C)C1=O", "support Hyp turnover"),
]

Moving on to the next compound.
Test item `COC1=C(OC)C(=O)C(C/C=C(\C)CCC=C(C)C)=C(C)C1=O` ; human PRODH2 157–515 (Homo sapiens, UniProt Q9UF12); reported ability to support Hyp turnover as electron acceptor was inability to use
